assay: Pharmacokinetic study in rats after oral administration of FA decoction; type: in vivo, Sprague-Dawley rats; conditions: male, Sprague-Dawley; rat plasma, oral FA decoction 30 g/kg; n=8
Parameter: Cmax (ng/mL)

>  <Compound>
COc1ccc2ccc(=O)oc2c1C[C@@H](O)C(C)(C)O [Meranzin hydrate, meranzin hydrate]

>  <Parameter>
Cmax

>  <Test Result>
1830

$$$$

a: O=C1C[C@@H](c2ccc(O)cc2)Oc2cc(O)cc(O)c21
b: COc1ccc([C@@H]2CC(=O)c3c(O)cc(O)cc3O2)cc1O
[ask] Two entries are listed, a and b . Which one carries the higher Cmax? Mark your answer with the label of the selected entry.
[reply] a

---

Assay: Stability of the analytical solution of FA decoction at environmental temperature
Format: physicochemical
Conditions: FA decoction 1.7 g/mL, 4h
Procedure: The raw herb (200 g) was immersed in distilled water (1 : 8, w/v) for 0.5 h at room temperature and thereafter was boiled for 0.5 h. The filtrate was collected, and the residue was boiled again in distilled water (1 : 6, w/v) for 0.5 h. The filtrates were mixed together, filtered through a 0.45 µm porous filtration membrane, then farther concentrated in the rotary evaporator to a final concentration equivalent to 1.7 g/mL FA, and stored at −20°C until analyzed. […]
Parameter: Stability in FA decoction, Content (mg/mL)

P: C[C@@H]1O[C@@H](O[C@H]2[C@H](Oc3cc(O)c4c(c3)O[C@H](c3ccc(O)cc3)CC4=O)O[C@H](CO)[C@@H](O)[C@@H]2O)[C@H](O)[C@H](O)[C@H]1O [naringin]
Q: COc1ccc([C@@H]2CC(=O)c3c(O)cc(O)cc3O2)cc1O [Hesperetin, hesperetin]
R: O=C1C[C@@H](c2ccc(O)cc2)Oc2cc(O)cc(O)c21 [Naringenin, naringenin]
[ask] Arrange the 3 entries by Stability in FA decoction, Content so the values rise. Give me the labels in the order the question wants.
[reply] Q, R, P
(Q: 0.18 mg/mL, R: 0.26 mg/mL, P: 24.92 mg/mL)

---

assay: Pharmacokinetic study in rats after oral administration of FA decoction; type: in vivo, Sprague-Dawley rats; conditions: male, Sprague-Dawley, oral; rat plasma, 15 g/kg group
Parameter: Cmax (ng/mL)
State just the number; it will be interpreted in ng/mL.

[ask] Determine from records and report Cmax for COc1ccc([C@@H]2CC(=O)c3c(O)cc(O)cc3O2)cc1O
[reply] 83.9

---

assay: Stability of the analytical solution of FA decoction at environmental temperature; type: physicochemical; conditions: FA decoction 1.7 g/mL, 24h
Parameter: Stability in FA decoction, Content (mg/mL)

A: COc1ccc([C@@H]2CC(=O)c3c(O)cc(O[C@@H]4O[C@H](CO)[C@@H](O)[C@H](O)[C@H]4O[C@@H]4O[C@@H](C)[C@H](O)[C@@H](O)[C@H]4O)cc3O2)cc1O
B: COc1ccc2ccc(=O)oc2c1C[C@@H](O)C(C)(C)O [Meranzin hydrate, meranzin hydrate]
C: COc1ccc([C@@H]2CC(=O)c3c(O)cc(O)cc3O2)cc1O
[ask] Arrange the 3 entries by Stability in FA decoction, Content so the values rise. Give me the labels in the order the question wants.
[reply] C, B, A
(C: 0.18 mg/mL, B: 0.34 mg/mL, A: 14.08 mg/mL)

---

assay: Stability of the analytical solution of FA decoction at environmental temperature; format: physicochemical; settings: FA decoction 1.7 g/mL, 0h
Parameter: Stability in FA decoction, Content (mg/mL)

P: COc1ccc([C@@H]2CC(=O)c3c(O)cc(O)cc3O2)cc1O [Hesperetin, hesperetin]
Q: COc1ccc([C@@H]2CC(=O)c3c(O)cc(O[C@@H]4O[C@H](CO[C@@H]5O[C@@H](C)[C@H](O)[C@@H](O)[C@H]5O)[C@@H](O)[C@H](O)[C@H]4O)cc3O2)cc1O [hesperidin]
R: COc1ccc2ccc(=O)oc2c1C[C@@H](O)C(C)(C)O [Meranzin hydrate, meranzin hydrate]
[ask] Arrange the 3 entries by Stability in FA decoction, Content so the values rise. Give me the labels in the order the question wants.
[reply] P, R, Q
(P: 0.19 mg/mL, R: 0.34 mg/mL, Q: 4.95 mg/mL)
